meta.source: paper PMC9574860

Answer each item with its documented Inhibition %.
Target: Parkinson's disease protein 7 (PARK7/DJ1) (human, UniProt Q99497)
Sequence (Q99497 whole entry, looked up): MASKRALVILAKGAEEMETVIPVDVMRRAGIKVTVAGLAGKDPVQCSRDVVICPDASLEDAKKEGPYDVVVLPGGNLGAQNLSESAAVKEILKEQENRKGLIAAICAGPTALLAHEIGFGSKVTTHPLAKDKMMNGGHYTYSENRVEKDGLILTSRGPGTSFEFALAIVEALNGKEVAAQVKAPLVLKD
Assay: primary screen, percent inhibition; higher = more effect of the substance
Conditions: 100 µM
Among all 7,900 compounds or so, about 400 (5.1%) showed an effect of 50% or more. The entries come from a sample that favours strong results as a whole.
State just the number; it will be interpreted in %.

Input line: Assign Inhibition % to the following record: CC1(C)OB(c2cccc3c2CCC3)OC1(C)C
Output line: 3.3

Input line: Assign Inhibition % to the following record: O=C(CC1SC(=O)NC1=O)Nc1ccccc1 (stereo not shown)
Output line: 82.7

Input line: Assign Inhibition % to the following record: CC(=O)NCCc1cc(C(=O)CCl)ccc1F
Output line: 83.3

Input line: Assign Inhibition % to the following record: ClCCCc1cccnc1
Output line: 7.37

----------
Target: Parkinson's disease protein 7 (PARK7/DJ1) (human)
Experiment: primary screen, percent inhibition; read as competition with a fluorescent probe by fluorescence polarization; higher = more effect of the substance
Conditions: 100 µM
Screen size: about 7,900 compounds; about 400 (5.1%) showed an effect of 50% or more. The sample as a whole holds a higher share of strong results than the screen did.
REPORTED_METRIC: Inhibition % (%)
State just the number; it will be interpreted in %.

Input line: Assign Inhibition % to the following record: Cc1cccc(NC2C=CS(=O)(=O)C2)c1 (stereo not drawn)
Output line: 7.19

Input line: Assign Inhibition % to the following record: NC(=O)C1CCCN(S(=O)(=O)C=Cc2ccccc2)C1 (stereo not drawn)
Output line: 6.58

Input line: Assign Inhibition % to the following record: C=CC(=O)N1CCCCC1c1noc(C2CC2)n1 (stereo not drawn)
Output line: 29.3

Input line: Assign Inhibition % to the following record: O=C1Cc2cc(C(=O)CCl)ccc2N1
Output line: 81.4

Input line: Assign Inhibition % to the following record: Cc1cc(C=C(C#N)C(=O)NCC2CCCO2)ccc1F (stereo not drawn)
Output line: 2.68

Input line: Assign Inhibition % to the following record: C=CC(=O)N(Cc1cncs1)C1CCN(C(C)=O)CC1
Output line: 5.13

Input line: Assign Inhibition % to the following record: CC(=O)NCc1ccc(S(=O)(=O)NC(=O)CCl)cc1
Output line: 3.06

Input line: Assign Inhibition % to the following record: CC1(C2CC2)CCN(c2cncc(C#N)n2)CC1
Output line: 6.7

Input line: Assign Inhibition % to the following record: O=C(CCl)Nc1ccc2c(c1)CCC2
Output line: 57.8

Input line: Assign Inhibition % to the following record: C=CC(=O)Nc1ccc2sncc2c1
Output line: 97.4

Input line: Assign Inhibition % to the following record: C=CC(=O)N(CC)C1CCS(=O)(=O)C1 (stereo not drawn)
Output line: -4.06

Input line: Assign Inhibition % to the following record: CC1(C)OB(c2cccc3occc23)OC1(C)C
Output line: 10.2

Input line: Assign Inhibition % to the following record: C=CC(=O)NCC1CC2(CCOCC2)CO1 (stereo not drawn)
Output line: 5.16

Input line: Assign Inhibition % to the following record: CCCC(=O)NC1CCCN(c2ccc(C#N)nc2)C1 (stereo not drawn)
Output line: 5.26

Input line: Assign Inhibition % to the following record: C=CC(=O)Nc1ccc2c(c1)CCC2
Output line: 7.23

Input line: Assign Inhibition % to the following record: FC(F)(F)c1cccc(C2CO2)c1 (stereo not drawn)
Output line: 2.09

Input line: Assign Inhibition % to the following record: C=CC(=O)NCc1cc2n(n1)CCC2
Output line: 10.7

Input line: Assign Inhibition % to the following record: NC(=O)COc1ccc(C(=O)CCl)cc1
Output line: 5.31

Input line: Assign Inhibition % to the following record: O=C(CCl)Nc1ccc(F)c(Cl)c1
Output line: 21.3

Input line: Assign Inhibition % to the following record: C=CC(=O)N1CCCC(N(C)Cc2noc(C)n2)CC1 (stereo not drawn)
Output line: 1.13

Input line: Assign Inhibition % to the following record: C=CC(=O)Nc1ccc2c(cnn2C(F)F)c1
Output line: 6.45

Input line: Assign Inhibition % to the following record: CC1(C)NC(=O)C1(C)C
Output line: 2.57

Input line: Assign Inhibition % to the following record: C=CC(=O)N1CCN(c2ccccc2F)CC1
Output line: 7.53

Input line: Assign Inhibition % to the following record: NC(=O)CCc1ccc(C(=O)CCl)cc1
Output line: 82.5

Input line: Assign Inhibition % to the following record: Cc1ccc(CN(C)C(=O)CCl)o1
Output line: 40.8

Input line: Assign Inhibition % to the following record: CC(C)Cc1ccc(C(C)NC(=O)CCl)cc1 (stereo not drawn)
Output line: 9.76

Input line: Assign Inhibition % to the following record: CC(=O)c1oc2ccccc2c1NC(=O)CCl
Output line: 9.9

Input line: Assign Inhibition % to the following record: Cc1ccc(C=CS(=O)(=O)Nc2cc(C)nn2C)cc1
Output line: 20

Input line: Assign Inhibition % to the following record: O=C(CCl)N(Cc1ccco1)c1ccccc1
Output line: 17.8

Input line: Assign Inhibition % to the following record: C=CC(=O)NC1CCc2nnc(CC)n2C1 (stereo not drawn)
Output line: 7.66

Input line: Assign Inhibition % to the following record: CN1C(=O)Cc2cc(C(=O)CCl)ccc21
Output line: 83.4

Input line: Assign Inhibition % to the following record: CN(C)C(=O)c1ccc(CNC(=O)CCl)cc1
Output line: 2.36

Input line: Assign Inhibition % to the following record: CC(c1ccsc1)N1CCN(c2ccc(C#N)nc2)CC1 (stereo not drawn)
Output line: 7.22

Input line: Assign Inhibition % to the following record: O=C(CCl)Nc1ccc(Br)cc1
Output line: 70.1

Input line: Assign Inhibition % to the following record: CCN1CCN(c2ccc(NC(=O)CCl)cc2)CC1.Cl
Output line: 37.8

Input line: Assign Inhibition % to the following record: O=C(CCl)NC(=O)Nc1ccc(Br)cc1
Output line: 23.3
